Species on record: Rattus norvegicus
methodNotes: Inhibition of Aldehyde reductase in Sprague-Dawley albino rat at 100 uM
Here, each record is paired with measured inhibition data.

Reference set, count: 5
smilesCode	inhibition
O=[N+]([O-])c1cccc(COc2ccc3c(c2)no[n+]3[O-])c1	5%
[O-][n+]1onc2cc(OCc3ccc(Br)cc3)ccc21	19%
[O-][n+]1onc2cc(OCc3ccc(C(F)(F)F)cc3)ccc21	14%
[O-][n+]1onc2cc(OCCc3ccccc3)ccc21	11%
O=S(=O)(Oc1ccc2nonc2c1)c1ccc(Cl)s1	20%

// next entry
[Q] Answer with the recorded inhibition of `[O-][n+]1onc2cc(OCc3ccccc3)ccc21` only.
[A] 26%

Data provenance: ChEMBL document CHEMBL2176922
